# credit: patent US12686664B2

Provide the reported inhibition at 10 µM of each item.
Tested on: store-operated Ca^2+ entry in PLP-B lymphocytes
assay_text: Store-operated Ca2+ entry after thapsigargin depletion of ER Ca2+ stores in PLP-B lymphocytes
Type: cell-based
condition_parameters: Lymphocyte, 10 μM; PLP-B lymphocytes; % of inhibition (−) or activation; DMSO control 100%; read-out: Effect on amplitude of SOCE Peak
Where a name gives a salt, the structure may show the parent alone.
Give bare numbers, in %.

compound: COc1ccc(CCOc2ccc(CCn3c(C(F)(F)F)nc4cc(N)ccc43)cc2)cc1 [6αm VAL 1-77]
inhibition at 10 µM / %: -4

Record inhibition at 10 µM per entry; entries follow.
1. FC(F)(F)c1cc(C(F)(F)F)n(CCc2ccccc2OCCc2ccccc2)n1 [6βaa DAD 3.535]
2. COc1ccc(CCCOc2ccc(CCn3ncc4ccccc43)cc2)cc1 [6αaa DAD 4-574]
3. c1ccc(OCCOc2ccc(CCn3cnc4ccccc43)cc2)cc1 [6αae DAD 4-569]
4. COc1ccc(CCCOC(Cn2ccnc2)c2ccc(OC)cc2)cc1 (centres unmarked) [SKF-96365]

A:
[18, 10.4, -7.5, 15.4]

Parameters: items (list). Returns: inhibition at 10 µM for each item.
1. CS(=O)(=O)Oc1ccc(Cn2cnc3ccccc32)cc1 [8αa]
2. COc1ccc(COc2ccc(CCn3cccn3)cc2)cc1 [6βm DAD 2.306]
3. Fc1ccc2c(c1)ncn2CCc1ccc(OCCc2ccc(OC3CCCCO3)cc2)cc1 (centres unmarked) [11αc]
4. CS(=O)(=O)Oc1ccc(Cn2c(C(F)(F)F)nc3ccccc32)cc1 [8αc]
5. c1ccc2c(c1)ncn2CCc1ccc(OCCc2ccc(OC3CCCCO3)cc2)cc1 (centres unmarked) [11αb]
6. Oc1ccc(CCOc2ccc(CCn3cnc4ccccc43)cc2)cc1 [12αb, hydrochloride]
7. COCOc1ccc(CCn2cnc3ccccc32)cc1 [6αad VAL3.31]

A:
1: 20; 2: -2; 3: 31; 4: 14; 5: 29; 6: -25; 7: -51

Provide each entry's inhibition at 10 µM from the list below.
1. Oc1ccc(CCOc2ccc(CCn3cnc4cc(F)ccc43)cc2)cc1 [12αc, hydrochloride]
2. CS(=O)(=O)Oc1ccc(Cn2cncn2)cc1 [8βb]
3. Nc1ccc2c(c1)nc(C(F)(F)F)n2CCc1ccc(OCCCc2ccccc2)cc1 [6αv VAL 1-64]
4. COc1ccc(CCCOc2ccc(CCn3c(C(F)(F)F)nc4cc(N)ccc43)cc2)cc1 [6αu VAL 1-75]
5. COc1ccccc1CCOc1ccc(CCn2cnc3ccccc32)cc1 [6αac DAD 4-566]
6. Oc1ccc(Cn2cnc3ccccc32)cc1 [9αa]
7. COc1ccc(CCCOc2ccc(CCn3cnc4ccccc43)cc2)cc1 [6αn DAD 3-474]
8. Oc1ccc(Cn2cnc3cc(F)ccc32)cc1 [9αe]

A:
[-20, 27, -8, -6, 31.1, -2, -16, -6]
